experiment: Liver tissue distribution after single intragastric administration; settings: ICR, mouse, plasma, oral, 10 mg/kg
assay.metric: concentration at 1 h
Report field: quantity (unit follows the number).

Field concentration at 1 h (entry CCCC[C@](C)(CO)Nc1nc(N)nc2cc(F)cnc12 [GS-9688, reference compound] ) reads 70.9 ng/mL

###

The entries below come with measured AUC(0-t) at 24 h values attached.
experiment: Liver tissue distribution after single intragastric administration; conditions: mouse, in vivo, po, 10 mg/kg, AUC0-t (plasma), 10 mg/kg single intragastric, ICR mice; area under curve at 24 h post-dose
State the answer as a number, implicitly in ng·h/mL.

molecule: COCCNc1nc(N)nc2ccc(Cc3ccc(CN4CCOCC4)cc3)nc12 [Compound II]
measured.value: 510

Field AUC(0-t) at 24 h (entry COCCNc1nc(N)nc2ccc(Cc3ccc(CN(C)C)cc3)nc12 [Compound I] ) reads 206

###

test: Liver tissue distribution after single intragastric administration; conditions: ICR, mouse, plasma, oral, 10 mg/kg
assay.metric: concentration at 4 h (ng/mL)
State the answer as a number, implicitly in ng/mL.

Field concentration at 4 h (entry CCCC[C@](C)(CO)Nc1nc(N)nc2cc(F)cnc12 [GS-9688, reference compound] ) reads 13.8

###

Experiment: Liver tissue distribution after single intragastric administration
Conditions: ICR, mouse, liver, oral, 10 mg/kg
Experimental: The specific regimen was as follows: Before administration, the state of the formulation for administration was inspected, and the homogeneity of the formulation was ensured by vortexing, stirring, or shaking. The theoretical dose for each mouse was calculated according to the following formula. The actual dose for each ICR mouse and the collection time for plasma and tissue samples were required to be recorded in detail in corresponding tables. […]
assay.metric: concentration at 1 h (ng/g)
State the answer as a number, implicitly in ng/g.

Field concentration at 1 h (entry CCCC[C@](C)(CO)Nc1nc(N)nc2cc(F)cnc12 [GS-9688, reference compound] ) reads 224

###

test: in vivo; details: mouse, in vivo, po
The entries below come with measured MTD at 168 h values attached.
State the answer as a number, implicitly in mg/kg.

compound: COCCNc1nc(N)nc2ccc(Cc3ccc(CN(C)C)cc3)nc12 [Compound I]
assay.metric: MTD at 168 h
output.unit: mg/kg
measured.value: 40

Field MTD at 168 h (entry COCCNc1nc(N)nc2ccc(Cc3ccc(CN4CCOCC4)cc3)nc12 [Compound II] ) reads 40

###

experiment: Liver tissue distribution after single intragastric administration; settings: ICR, mouse, liver, po, 10 mg/kg
assay.metric: AUC(0-t) (ng·h/mL)
State the answer as a number, implicitly in ng·h/mL.

Field AUC(0-t) (entry CCCC[C@](C)(CO)Nc1nc(N)nc2cc(F)cnc12 [GS-9688, reference compound] ) reads 1180

###

test: Liver tissue distribution after single intragastric administration; details: ICR, mouse, plasma, oral, 10 mg/kg
assay.metric: concentration at 0.25 h (ng/mL)
State the answer as a number, implicitly in ng/mL.

Field concentration at 0.25 h (entry CCCC[C@](C)(CO)Nc1nc(N)nc2cc(F)cnc12 [GS-9688, reference compound] ) reads 364

###

assay: Liver tissue distribution after single intragastric administration; details: ICR, mouse, liver, oral, 10 mg/kg
assay.metric: concentration at 4 h

Field concentration at 4 h (entry CCCC[C@](C)(CO)Nc1nc(N)nc2cc(F)cnc12 [GS-9688, reference compound] ) reads 207 ng/g

###

assay: Liver tissue distribution after single intragastric administration; settings: ICR, mouse, plasma, po, 10 mg/kg
assay.metric: AUC(0-t) (ng·h/mL)
State the answer as a number, implicitly in ng·h/mL.

Field AUC(0-t) (entry CCCC[C@](C)(CO)Nc1nc(N)nc2cc(F)cnc12 [GS-9688, reference compound] ) reads 336

###

assay: Liver tissue distribution after single intragastric administration; details: ICR, mouse, liver/plasma, oral, 10 mg/kg
assay.metric: Kp at 1 h
The response must contain the number and no unit.

Field Kp at 1 h (entry CCCC[C@](C)(CO)Nc1nc(N)nc2cc(F)cnc12 [GS-9688, reference compound] ) reads 3.16

###

assay: in vitro; conditions: human, microsomes, pH 7.4
assay.metric: half-life at 1 µM
Report field: quantity (unit follows the number).

chemical.string: COCCNc1nc(N)nc2ccc(Cc3ccc(CN4CCOCC4)cc3)nc12
measured.value: 0.585 h

Field half-life at 1 µM (entry "COCCNc1nc(N)nc2ccc(Cc3ccc(CN(C)C)cc3)nc12" ) reads 1.7 h

###

experiment: Liver tissue distribution after single intragastric administration; details: ICR, mouse, liver, oral, 10 mg/kg
assay.metric: concentration at 0.25 h (ng/g)
State the answer as a number, implicitly in ng/g.

Field concentration at 0.25 h (entry CCCC[C@](C)(CO)Nc1nc(N)nc2cc(F)cnc12 [GS-9688, reference compound] ) reads 907

###

test: in vitro; conditions: human, microsomes, pH 7.4
The entries below come with measured microsomal CLint at 1 µM values attached.
State the answer as a number, implicitly in µL/min/mg.

chemical.string: COCCNc1nc(N)nc2ccc(Cc3ccc(CN(C)C)cc3)nc12
microsomal CLint at 1 µM (µL/min/mg): 13.7

Moving on to the next compound.
Field microsomal CLint at 1 µM (entry "COCCNc1nc(N)nc2ccc(Cc3ccc(CN4CCOCC4)cc3)nc12" ) reads 39.5

###

experiment: Liver tissue distribution after single intragastric administration; conditions: ICR, mouse, liver/plasma, po, 10 mg/kg
assay.metric: Kp
The response must contain the number and no unit.

Field Kp (entry CCCC[C@](C)(CO)Nc1nc(N)nc2cc(F)cnc12 [GS-9688, reference compound] ) reads 3.5

###

assay: Liver tissue distribution after single intragastric administration; settings: ICR, mouse, liver/plasma, oral, 10 mg/kg
assay.metric: Kp at 0.25 h
The response must contain the number and no unit.

Field Kp at 0.25 h (entry CCCC[C@](C)(CO)Nc1nc(N)nc2cc(F)cnc12 [GS-9688, reference compound] ) reads 2.49

###

assay: Liver tissue distribution after single intragastric administration; conditions: mouse, in vivo, po, 10 mg/kg, AUC0-t (liver), 10 mg/kg single intragastric, ICR mice; area under curve at 24 h post-dose
assay.metric: AUC(0-t) at 24 h (ng·h/mL)
State the answer as a number, implicitly in ng·h/mL.

chemical.string: COCCNc1nc(N)nc2ccc(Cc3ccc(CN(C)C)cc3)nc12
measured.value: 9480

Field AUC(0-t) at 24 h (entry "COCCNc1nc(N)nc2ccc(Cc3ccc(CN4CCOCC4)cc3)nc12" ) reads 58100
